System: SF-539 CNS
Test Details: NCI tumour cell line growth inhibition, 48 h
Observable: TGI (µM)
Report as a plain number; the unit µM is understood.

Ask | // Input: COc1cc2c(cc1OC)C(Cl)C(c1cc(OC)c(OC)c(OC)c1)=C2Cl (stereo not given) . Output its TGI only.
Reply | 26.7

Ask | // Input: `Oc1c(CN2CCCC2)cc(COCc2ccccc2)c2cccnc12` . Output its TGI only.
Reply | 10.1

Ask | // Input: C[C@H]1[C@@H](OCC(CO[C@H]2O[C@@H]3O[C@@]4(C)CC[C@H]5[C@H](C)CC[C@@H]([C@H]2C)[C@@]35OO4)=NOCC(=O)O)OC2O[C@@]3(C)CC[C@H]4[C@H](C)CC[C@@H]1[C@@]24OO3 (stereo not given in full) . Output its TGI only.
Reply | 20.9

Ask | // Input: `Cc1ccc2[nH]c3c(C)c4ccncc4c(C)c3c2c1` . Output its TGI only.
Reply | 2.68

Ask | // Input: `COc1ccccc1/C=C\c1cc(OC)c(OC)c(OC)c1` . Output its TGI only.
Reply | 46.4

Ask | // Input: `CC/C=C\CCC/C=C1/C(=O)C=C[C@@H]1C/C=C\CCCC(=O)O` . Output its TGI only.
Reply | 12.4

###

System: HCT-116 colon
Test Details: NCI tumour cell line growth inhibition, 48 h
Observable: TGI

Ask | // Input: `COc1ccc(C)cc1NC(=S)N/N=C/c1ccc(SC)cc1` . Output its TGI only.
Reply | > 100 µM

Ask | // Input: Fc1ccc(C(OCCN2CCC3CCC(C2)N3Cc2cc3ccccc3[nH]2)c2ccc(F)cc2)cc1 (stereo not given) . Output its TGI only.
Reply | 2.6 µM

Ask | // Input: `CCCC[C@@H](COC(=O)N(Cc1cccs1)Cc1cccs1)NC(=O)N[C@@H](CC(=O)OC)c1ccc2c(c1)OCO2` . Output its TGI only.
Reply | > 100 µM

Ask | // Input: `O=C1c2ccccc2C(=O)N1c1ccc(OCCN2CCCCC2)cc1` . Output its TGI only.
Reply | > 100 µM

Ask | // Input: `CC(=O)Oc1cccc2c1C(=O)c1c(OC(C)=O)cc(C)cc1C2=O` . Output its TGI only.
Reply | > 100 µM

###

System: TK-10 renal
Test Details: NCI tumour cell line growth inhibition, 48 h
Exercise: for every item that follows, state its recorded GI50.

Ask | Tell me its GI50 on TK-10 renal: `CN(C)c1ccc(/C=C/c2ccnc3ccccc23)cc1`
Reply | 9490 nM

Ask | Tell me its GI50 on TK-10 renal: `COc1ccc(/C=C2\COc3ccc(-c4ccccc4)cc3C2=O)cc1O`
Reply | 2140 nM

Ask | Tell me its GI50 on TK-10 renal: `c1ccc(-c2nc(N3CCNCC3)c3nc(-c4ccccc4)oc3n2)cc1`
Reply | 1670 nM

###

Exercise: for every item that follows, state its recorded TGI.
System: HCT-116 colon
Test Details: NCI tumour cell line growth inhibition, 48 h
Report as a plain number; the unit µM is understood.

Ask | // Input: C[C@H]1[C@@H](OCC(CO[C@H]2O[C@@H]3O[C@@]4(C)CC[C@H]5[C@H](C)CC[C@@H]([C@H]2C)[C@@]35OO4)=NOCC(=O)O)OC2O[C@@]3(C)CC[C@H]4[C@H](C)CC[C@@H]1[C@@]24OO3 (some centres undefined) . Output its TGI only.
Reply | 13.7

Ask | // Input: `CC/C(Cl)=N\OC(=O)Nc1ccc(C#N)cc1` . Output its TGI only.
Reply | 28.1

Ask | // Input: `CC/C=C\CCC/C=C1/C(=O)C=C[C@@H]1C/C=C\CCCC(=O)O` . Output its TGI only.
Reply | 5.79

Ask | // Input: COC(=O)C1=C(C)NC(C)=C([N+](=O)[O-])C1c1cccc(NO)c1 (centres undefined) . Output its TGI only.
Reply | 10.5

Each recorded value in this set is attributed to PubChem BioAssay (NCI).
